target.under.test: HCV NS3/4A 1b protease D168A (Hepatitis C virus genotype 1b, UniProt Q9WMX2, D1194A)
Construct: 10× stocks of NS3/4A protease enzyme from Bioenza (Mountain View, Calif.); purchased Bioenza (Mountain View, Calif.)
Sequence (Q9WMX2 1027-1657 D1194A): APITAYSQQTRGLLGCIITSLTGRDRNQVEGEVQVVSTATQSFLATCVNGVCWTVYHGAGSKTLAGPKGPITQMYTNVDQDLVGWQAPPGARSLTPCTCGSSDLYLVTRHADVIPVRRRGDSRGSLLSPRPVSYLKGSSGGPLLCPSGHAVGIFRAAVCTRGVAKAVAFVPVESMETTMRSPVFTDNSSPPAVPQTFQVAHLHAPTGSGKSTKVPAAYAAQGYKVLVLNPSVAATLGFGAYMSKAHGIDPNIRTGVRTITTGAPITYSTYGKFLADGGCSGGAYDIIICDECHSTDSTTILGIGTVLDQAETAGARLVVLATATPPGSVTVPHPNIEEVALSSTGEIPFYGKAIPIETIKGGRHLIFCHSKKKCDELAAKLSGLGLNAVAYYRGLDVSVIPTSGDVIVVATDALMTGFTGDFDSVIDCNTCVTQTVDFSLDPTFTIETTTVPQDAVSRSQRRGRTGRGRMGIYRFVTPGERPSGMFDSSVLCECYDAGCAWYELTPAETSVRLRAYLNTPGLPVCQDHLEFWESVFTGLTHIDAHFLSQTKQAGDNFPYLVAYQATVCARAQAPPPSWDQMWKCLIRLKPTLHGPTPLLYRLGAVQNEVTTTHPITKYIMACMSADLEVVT
Sequence (Q9WMX2 1658-1711 partner limits assumed): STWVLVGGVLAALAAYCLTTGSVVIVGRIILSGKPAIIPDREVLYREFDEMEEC
test: HCV protease FRET assay (IC50_APP), Example 16
Format: biochemical
pIC50: −log10 of the molar value.
recorded.endpoint: pIC50

{"compound": "C=C[C@@H]1C[C@]1(NC(=O)[C@@H]1C[C@@H](OC(=O)N2Cc3cccc(F)c3C2)CN1C(=O)CNC(=O)c1ccccc1OC(C)=O)C(=O)NS(=O)(=O)C1CC1", "experimental.value": "5.00 to 6.00"}
{"compound": "C=CC(=O)N(C)CC(NC(=O)C12CCC(C(=O)OC)(CC1)CC2)C(=O)N1CC(OC(=O)N2Cc3cccc(F)c3C2)C[C@H]1C(=O)N[C@]1(C(=O)NS(=O)(=O)C2CC2)C[C@H]1C=C (some centres unmarked)", "experimental.value": "5.00 to 6.00"}
{"compound": "C=CC(=O)N[C@H](C)C(=O)N1C[C@H](OC(=O)N2Cc3cccc(F)c3C2)C[C@H]1C(=O)N[C@]1(C(=O)NS(=O)(=O)C2CC2)C[C@H]1C=C", "experimental.value": "> 8.00"}
{"compound": "C=C[C@@H]1C[C@]1(NC(=O)[C@@H]1CC(OC(=O)N2Cc3cccc(F)c3C2)CN1C(=O)[C@H](CCC(=O)/C=C\\C(C)(C)C)NC(=O)OC(C)(C)C)C(=O)NS(=O)(=O)C1CC1 (some centres unmarked)", "experimental.value": "6.00 to 7.00"}
{"compound": "C=CC(=O)NCC(=O)N1C[C@H](OC(=O)N2Cc3cccc(F)c3C2)C[C@H]1C(=O)N[C@]1(C(=O)NS(=O)(=O)C2CC2)C[C@H]1C=C", "experimental.value": "6.00 to 7.00"}

###

System: HCV RNA replicon in cell line ET (luc-ubi-neo/ET), human Huh7 hepatoma
test: Replicon luciferase assay, Example 26
Format: cell-based
setup.conditions: Hepatitis C virus, Huh-7, assay of Example 26, 72 hr, read-out: Inhibition, Replicon, EC90 value
EC90 reference

{"compound": "CC(C)(C)OC(=O)N[C@H]1CCCN(S(=O)(=O)c2ccccc2[N+](=O)[O-])C/C=C\\[C@@H]2C[C@@]2(C(=O)NS(=O)(=O)C2CC2)NC(=O)[C@@H]2CC(OC(=O)N3Cc4cccc(F)c4C3)CN2C1=O (stereo partly drawn) [Compound I-54]", "target.under.test": "HCV RNA replicon in cell line ET (luc-ubi-neo/ET), human Huh7 hepatoma", "EC90": "> 10000 nM"}
{"compound": "CC(C)(C)OC(=O)N[C@H]1CN(S(=O)(=O)c2ccccc2[N+](=O)[O-])CCC/C=C\\[C@@H]2C[C@@]2(C(=O)NS(=O)(=O)C2CC2)NC(=O)[C@@H]2CC(OC(=O)N3Cc4cccc(F)c4C3)CN2C1=O (stereo partly drawn) [Compound I-45]", "target.under.test": "HCV RNA replicon in cell line ET (luc-ubi-neo/ET), human Huh7 hepatoma", "EC90": "100 to 1000 nM"}
{"compound": "C=C[C@@H]1C[C@]1(NC(=O)[C@@H]1CC(OC(=O)N2Cc3cccc(F)c3C2)CN1C(=O)C(CN(C)C(=O)/C=C/CN(C)C)NC(=O)OC(C)(C)C)C(=O)NS(=O)(=O)C1CC1 (stereo partly drawn) [Compound I-50]", "target.under.test": "HCV RNA replicon in cell line ET (luc-ubi-neo/ET), human Huh7 hepatoma", "EC90": "1000 to 10000 nM"}
{"compound": "CC(C)(C)OC(=O)N[C@H]1CN(C(=O)CCl)CCC/C=C\\[C@@H]2C[C@@]2(C(=O)NS(=O)(=O)C2CC2)NC(=O)[C@@H]2CC(OC(=O)N3Cc4cccc(F)c4C3)CN2C1=O (stereo partly drawn) [Compound I-47]", "target.under.test": "HCV RNA replicon in cell line ET (luc-ubi-neo/ET), human Huh7 hepatoma", "EC90": "100 to 1000 nM"}
{"compound": "C=C[C@@H]1C[C@]1(NC(=O)[C@@H]1CC(OC(=O)N2Cc3cccc(F)c3C2)CN1C(=O)[C@@H](C)Nc1ccnc(Cl)n1)C(=O)NS(=O)(=O)C1CC1 (stereo partly drawn) [Compound I-49]", "target.under.test": "HCV RNA replicon in cell line ET (luc-ubi-neo/ET), human Huh7 hepatoma", "EC90": "1000 to 10000 nM"}
{"compound": "C=CC(=O)N(C)CC(NC(=O)C12CCC(C(=O)OC)(CC1)CC2)C(=O)N1CC(OC(=O)N2Cc3cccc(F)c3C2)C[C@H]1C(=O)N[C@]1(C(=O)NS(=O)(=O)C2CC2)C[C@H]1C=C (stereo partly drawn) [Compound I-52]", "target.under.test": "HCV RNA replicon in cell line ET (luc-ubi-neo/ET), human Huh7 hepatoma", "EC90": "1000 to 10000 nM"}
{"compound": "C=CC(=O)N1CC/C=C\\[C@@H]2C[C@@]2(C(=O)NS(=O)(=O)C2CC2)NC(=O)[C@@H]2CC(OC(=O)N3Cc4cccc(F)c4C3)CN2C(=O)[C@@H](NC(=O)OC(C)(C)C)CC1 (stereo partly drawn) [Compound I-36]", "target.under.test": "HCV RNA replicon in cell line ET (luc-ubi-neo/ET), human Huh7 hepatoma", "EC90": "100 to 1000 nM"}
{"compound": "CC(C)(C)OC(=O)N[C@H]1CCN(S(=O)(=O)c2ccccc2[N+](=O)[O-])CC/C=C\\[C@@H]2C[C@@]2(C(=O)NS(=O)(=O)C2CC2)NC(=O)[C@@H]2CC(OC(=O)N3Cc4cccc(F)c4C3)CN2C1=O (stereo partly drawn) [Compound I-53]", "target.under.test": "HCV RNA replicon in cell line ET (luc-ubi-neo/ET), human Huh7 hepatoma", "EC90": "100 to 1000 nM"}
{"compound": "C=CC(=O)N1CC(C(NC(=O)OC2CCCC2)C(=O)N2CC(OC(=O)N3Cc4cccc(F)c4C3)C[C@H]2C(=O)N[C@]2(C(=O)NS(=O)(=O)C3CC3)C[C@H]2C=C)C1 (stereo partly drawn) [Compound I-51]", "target.under.test": "HCV RNA replicon in cell line ET (luc-ubi-neo/ET), human Huh7 hepatoma", "EC90": "1000 to 10000 nM"}
